The measurements presented in this section are drawn from PubChem BioAssay (NCI).

Test system: SNB-19 CNS
Experiment: NCI-60 one-dose screen, 48 h (100 = growth as untreated, 0 = no growth, -100 = all killed)
Settings: 10 µM unless noted
This is part of a sample that, as a whole, favours compounds with a hit. Of some 83,000 tested, about 20% had one in any assay. The source made the active and inactive calls. Rule for the calls: active = growth percent below 10; inactive = the rest.
Outcome Measure: growth

# Compound, Tgt, Data Value
rows = [
    ("Cn1cc(C(=O)C[n+]2ccccc2)c2ccccc21", "SNB-19 CNS", "105% (inactive)"),
]

Documented growth of CC12CCC3C4CCC(=O)C=C4CCC3C1CC1CC(=O)OC12 (stereo not given) : 94.6% (inactive)

Documented growth of CCCC(C)SP(=S)(SC(C)CCC)SC(C)CCC (stereo not given) : 108% (inactive)

Documented growth of COc1ccn(C)c(=O)c1C#N : 109% (inactive)

Documented growth of CO[C@H]1[C@H](O[C@@H]2C[C@@H]3C/C=C/C(=O)O[C@@H](CO)C[C@H](O)[C@@H]4C[C@H](C)[C@H](C/C=C\C=C\[C@H](C)C[C@H](C2)O3)O4)O[C@@H](C)[C@H](O)[C@H]1O : 52.2% (inactive)
